Source of measurements: patent US20140112915A1

# Tested On: T1, Native human IL-18 (human, UniProt Q14116 37-193)
# T1 sequence: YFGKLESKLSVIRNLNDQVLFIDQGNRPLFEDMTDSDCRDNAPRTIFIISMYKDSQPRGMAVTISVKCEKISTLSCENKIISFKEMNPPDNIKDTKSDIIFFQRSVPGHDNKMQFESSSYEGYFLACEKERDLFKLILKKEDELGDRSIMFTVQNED
# Assay Procedure: cell-based or functional assay
Readout Name: IC50, inhibition of IFN-γ release, human whole blood, LPS/IL-12 (native IL-18)

Binder	Meas Value
MOR9464_N30Q (antibody, human IgG1, lambda, L234A L235A, V domains shown) VH: EVQLVQSGAEVKKPGSSVKVSCKASGGTFQSYAISWVRQAPGQGLEWMGNIIPMTGQTYYAQKFQGRVTITADESTSTAYMELSSLRSEDTAVYYCARAAYHPLVFDNWGQGTLVTVSS VL: DIVLTQPPSVSGAPGQRVTISCSGSSSNIGNHYVNWYQQLPGTAPKLLIYRNNHRPSGVPDRFSGSKSGTSASLAITGLQSEDEADYYCQSWDYSGFSTVFGGGTKLTVLG	13.4 nM
MOR10222_E1Q_N30S_M54Y (antibody, human IgG1, lambda, L234A L235A, V domains shown) VH: QVQLVQSGAEVKKPGSSVKVSCKASGGTFSSYAISWVRQAPGQGLEWMGNIIPYTGQTYYAQKFQGRVTITADESTSTAYMELSSLRSEDTAVYYCARAAYHPLVFDNWGQGTLVTVSS VL: QSVLTQPPSASGTPGQRVTISCSGSSSNIGNHYVNWYQQLPGTAPKLLIYRNNHRPSGVPDRFSGSKSGTSASLAISGLQSEDEADYYCQSWDYSGFSTVFGGGTKLTVLG	18.8 nM
MOR10501 (antibody, human IgG1, lambda, L234A L235A, V domains shown, also called MOR010501) VH: EVQLQESGPGLVKPGETLSLTCTVSGGSISTGSYYWNWIRQAPGKGLEWIGEIWHSGPTFYNPSLKSRVTISVDTSKNQFSLKLSSVTAADTAVYYCARTTRYWMSHILAYGMDYWGQGTLVTVSS VL: DIVLTQPPSVSGAPGQRVTISCSGSSSNIGNHYVSWYQQLPGTAPKLLIYANTKRPSGVPDRFSGSKSGTSASLAITGLQSEDEADYYCSSYDGSQSIVFGGGTKLTVLG	101 nM
MOR09466 (antibody, human IgG1, lambda, L234A L235A, V domains shown, also called MOR9466) VH: EVQLVQSGAEVKKPGSSVKVSCKASGGTFNSYAISWVRQAPGQGLEWMGNIIPYSGFAYYAQKFQGRVTITADESTSTAYMELSSLRSEDTAVYYCARAAYHPLVFDNWGQGTLVTVSS VL: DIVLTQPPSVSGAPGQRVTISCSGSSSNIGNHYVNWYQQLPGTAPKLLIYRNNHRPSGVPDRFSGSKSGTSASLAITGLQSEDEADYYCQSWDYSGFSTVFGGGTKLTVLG	18.5 nM
MOR10222_E1Q_N30S (antibody, human IgG1, lambda, L234A L235A, V domains shown) VH: QVQLVQSGAEVKKPGSSVKVSCKASGGTFSSYAISWVRQAPGQGLEWMGNIIPMTGQTYYAQKFQGRVTITADESTSTAYMELSSLRSEDTAVYYCARAAYHPLVFDNWGQGTLVTVSS VL: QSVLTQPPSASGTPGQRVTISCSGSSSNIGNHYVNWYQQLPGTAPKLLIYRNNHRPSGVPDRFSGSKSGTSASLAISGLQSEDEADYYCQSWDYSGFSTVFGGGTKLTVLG	16.9 nM
